Source listed as ChEMBL document CHEMBL1955761.

# Tested on: Dengue virus
# Assay Method Text: Inhibition of Dengue virus NS2B-NS3 protease using Abz-NleKRRS-3-(NO2)Y as substrate at 50 uM preincubated for 15 mins measured every sec for 15 mins by fluorimetric analysis
Active and inactive are the calls of the source. The calls are words filed in the database; no cut-off is given here.
Observable: inhibition

O=C1CNC(=S)N1; inactive
O=C1NC(=O)/C(=C/c2sccc2Br)S1; inactive
O=C1NC(=S)NC1Cc1cccs1 (stereo unspecified); inactive
O=C1NC(=S)NC1Cc1ccc(O)c(O)c1 (stereo unspecified); 15%
O=C1NC(=O)/C(=C/c2ccc(O)cc2)N1; 26%

Asked: Answer with inhibition of CCCCC/C=C1\SC(=S)NC1=O measured for Dengue virus.
Given back: 35%

Asked: Fill in: inhibition on Dengue virus, entry C/C(=C1/NC(=S)NC1=O)c1ccc2ccccc2c1
Given back: 33%

Asked: // fetch inhibition; item: CC(=O)N1C(=S)NC(=O)[C@@H]1CCC(N)=O ; system: Dengue virus
Given back: inactive

Asked: With Dengue virus as the test system, provide measured inhibition for this molecule: CC(=O)n1cc(/C=C2\NC(=S)NC2=O)c2ccccc21
Given back: 43%

Asked: Jot down inhibition (Dengue virus) of CN(C)c1ccc(/C=C2\NC(=S)NC2=O)cc1 .
Given back: 42%

Asked: State recorded inhibition with Dengue virus, entry CCCC/C=C/C1SC(=S)NC1=O (stereo unspecified) , no comment.
Given back: 18%

Asked: Find the measured inhibition of O=C1NC(=S)N/C1=C\c1cccc(O)c1 with Dengue virus as test system.
Given back: 28%

Asked: Quote Dengue virus inhibition for entry O=C1NC(=S)S/C1=C\c1cccc(O)c1 .
Given back: 29%

Asked: Quote inhibition with test system Dengue virus for COc1ccccc1/C=C1\NC(=O)NC1=O
Given back: 18%

Asked: // fetch inhibition for Nc1ccc(/C=C2\SC(=S)NC2=O)cc1 ; system: Dengue virus
Given back: inactive
